# experiment-description: Whole blood stability assay
# Format: in vitro ADME, BALB/c nude mice
# test-conditions: BALB/c nude, mouse, fresh whole blood
measured-metric: half-life at 1 μmol/L (h)

* C/C=C/C(=O)Nc1ccc(-n2nc3c(=O)[nH]nc(N)c3c2-c2oc3ccc(C)cc3c2C)cc1 [Compound 10b] | 71.2

====

The following molecules each carry a recorded IC50 for FGFR1 (Homo sapiens).
measured-metric: IC50 (nM)

* COc1ccc2c(C)c(-c3c4c(N)n[nH]c(=O)c4nn3-c3ccccc3)oc2c1 [Compound 8d] | 67.7
* Cc1c(-c2c3c(N)n[nH]c(=O)c3nn2-c2ccccc2)oc2ccc(Br)cc12 [Compound 8m] | 66.8
* Cc1ccc2oc(-c3c4c(N)n[nH]c(=O)c4nn3-c3ccc(CNC(=O)OCc4ccccc4)cc3)c(C)c2c1 [Compound 9m] | 13.8
* Cc1c(-c2c3c(N)n[nH]c(=O)c3nn2-c2ccccc2)oc2ccc(Cl)cc12 [Compound 8j] | 56.4
* COc1ccc2oc(-c3c4c(N)n[nH]c(=O)c4nn3-c3ccccc3)c(C)c2c1 [Compound 8f] | 77.5

====

# measured-target: FGFR1 (Homo sapiens, UniProt P11362)
# Sequence (P11362 22-822): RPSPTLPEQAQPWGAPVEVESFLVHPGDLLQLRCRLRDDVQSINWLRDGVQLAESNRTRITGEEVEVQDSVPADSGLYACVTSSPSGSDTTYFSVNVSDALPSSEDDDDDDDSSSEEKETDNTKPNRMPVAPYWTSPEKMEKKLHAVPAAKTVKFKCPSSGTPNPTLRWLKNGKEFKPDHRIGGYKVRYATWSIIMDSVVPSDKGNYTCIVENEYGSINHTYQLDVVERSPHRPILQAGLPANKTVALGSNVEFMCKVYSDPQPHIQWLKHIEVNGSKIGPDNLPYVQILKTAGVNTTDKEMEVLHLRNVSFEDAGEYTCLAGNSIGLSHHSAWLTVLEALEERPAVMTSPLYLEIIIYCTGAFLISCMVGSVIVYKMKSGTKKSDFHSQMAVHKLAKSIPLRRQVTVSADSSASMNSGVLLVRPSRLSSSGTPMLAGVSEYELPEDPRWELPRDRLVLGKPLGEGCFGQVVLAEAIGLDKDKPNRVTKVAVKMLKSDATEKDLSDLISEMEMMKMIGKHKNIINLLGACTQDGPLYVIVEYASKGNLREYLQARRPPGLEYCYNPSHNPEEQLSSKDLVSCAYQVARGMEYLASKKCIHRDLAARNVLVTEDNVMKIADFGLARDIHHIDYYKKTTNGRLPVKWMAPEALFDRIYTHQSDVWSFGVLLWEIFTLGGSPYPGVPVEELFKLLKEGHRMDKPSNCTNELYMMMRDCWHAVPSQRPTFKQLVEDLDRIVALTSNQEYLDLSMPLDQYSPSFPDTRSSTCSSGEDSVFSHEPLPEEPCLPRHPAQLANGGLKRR
# experiment-description: Kinase inhibition assay
# Assay type: biochemical
# test-conditions: read-out: FGFR1 inhibition rate (%)
measured-metric: inhibition at 0.1 µM (%)

• Nc1n[nH]c(=O)c2nn(-c3ccccc3)c(-c3ccco3)c12 [Compound 6] = 19.6
• CC(=O)Nc1ccc(-n2nc3c(=O)[nH]nc(N)c3c2-c2oc3ccc(C)cc3c2C)cc1 [Compound 9j] = 76.4
• CCC(=O)Nc1ccc(-n2nc3c(=O)[nH]nc(N)c3c2-c2oc3ccc(C)cc3c2C)cc1 [Compound 9o] = 66.2
• CCCCNc1cc(F)c(-n2nc3c(=O)[nH]nc(N)c3c2-c2oc3ccc(C)cc3c2C)c(F)c1 [Compound 9z] = 73.9
• Cc1c(-c2c3c(N)n[nH]c(=O)c3nn2-c2ccccc2)oc2c(Cl)cccc12 [Compound 8p] = 38.1
• Cc1c(-c2c3c(N)n[nH]c(=O)c3nn2-c2ccccc2)oc2cc(Cl)ccc12 [Compound 8i] = 64.2
• Cc1ccc2oc(-c3c4c(N)n[nH]c(=O)c4nn3Cc3ccc([N+](=O)[O-])cc3)c(C)c2c1 [Compound 9w] = 16.9
• Nc1n[nH]c(=O)c2nn(-c3ccccc3)c(-c3ccccc3)c12 [Compound 7] = 20.4
